The reported measurements were obtained from ChEMBL document CHEMBL1671716.

System: Parabacteroides distasonis
Assay: Antimicrobial activity against Bacteroides distasonis after 48 hrs by agar dilution method
Type: functional
observable: MIC50 (µg/mL)
One number for each entry, in µg/mL.

# example entries with known answers
Can you look up the measured MIC50 of COc1c(N2C[C@@H]3CCCN[C@@H]3C2)c(F)cc2c(=O)c(C(=O)O)cn(C3CC3)c12 [MOXIFLOXACIN] for me? 2

Can you look up the measured MIC50 of Cc1ncc([N+](=O)[O-])n1CCO [METRONIDAZOLE] for me? 2

Can you look up the measured MIC50 of C[C@@H](O)[C@H]1C(=O)N2C(C(=O)O)=C(S[C@@H]3CN[C@H](C(=O)N(C)C)C3)[C@H](C)[C@H]12 [MEROPENEM] for me? 0.25

Can you look up the measured MIC50 of C[C@@H](O)[C@H]1C(=O)N2C(C(=O)O)=C(SCCNC=N)C[C@H]12 [IMIPENEM ANHYDROUS] for me? 0.5

Could you report MIC50 for every entry in the following list?
1. CCN1CCN(C(=O)N[C@@H](C(=O)N[C@@H]2C(=O)N3[C@@H]2SC(C)(C)[C@@H]3C(=O)O)c2ccccc2)C(=O)C1=O [PIPERACILLIN]
2. O=C(N[C@H](CO)[C@H](O)c1ccc([N+](=O)[O-])cc1)C(Cl)Cl [CHLORAMPHENICOL]
3. CO[C@@]1(NC(=O)Cc2cccs2)C(=O)N2C(C(=O)O)=C(COC(N)=O)CS[C@@H]21 [CEFOXITIN]

1: 128; 2: 4; 3: 32
